# system.tested: KIF2C (Homo sapiens, UniProt Q99661)
# Construct: KIF2C (216-598 a.a.); 6xHis (C)
# Sequence (Q99661 216-598): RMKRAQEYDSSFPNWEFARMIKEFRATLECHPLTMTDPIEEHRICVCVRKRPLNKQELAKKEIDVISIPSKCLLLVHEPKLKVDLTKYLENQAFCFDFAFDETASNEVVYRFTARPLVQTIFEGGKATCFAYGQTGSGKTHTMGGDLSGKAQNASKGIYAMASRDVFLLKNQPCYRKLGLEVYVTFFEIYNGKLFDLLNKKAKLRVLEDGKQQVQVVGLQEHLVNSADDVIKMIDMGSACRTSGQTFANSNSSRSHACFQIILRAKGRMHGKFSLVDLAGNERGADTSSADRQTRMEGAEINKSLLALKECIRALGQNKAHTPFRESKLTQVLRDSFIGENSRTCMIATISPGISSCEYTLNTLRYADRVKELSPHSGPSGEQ
# test.name: In vitro validation: KIF2C kinesin activity, malachite green-based phosphate colorimetric assay
# test.conditions: concentration that inhibits 50% of KIF2C activity
pEC50: −log10 of the molar value.
Measured pEC50 accompanies every entry in the list below.

Use these answered entries as a reference point.
CC1=C(C(=O)OC(C)C)C(c2ccc(F)cc2)n2c(s/c(=C\c3ccc(OCC(=O)O)cc3)c2=O)=N1 (stereo not shown) [9S0 (32)] :: > 4.30
CC1=C(C(=O)OC(C)C)C(c2ccc(Cl)cc2)n2c(s/c(=C\c3ccc(OCC(=O)N4CCC(N(C)C)CC4)cc3)c2=O)=N1 (stereo not shown) [23S0 (18)] :: > 4.30
COc1ccc(C2C(C(=O)OC(C)C)=C(C)N=c3s/c(=C\c4ccc(OCC(=O)N5CCC(N6CCN(C)CC6)CC5)cc4)c(=O)n32)cc1 (stereo not shown) [43S0 (62)] :: 4.00 to 4.30
CC1=C(C(=O)OC(C)C)C(c2ccc(C(F)(F)F)cc2)n2c(s/c(=C\c3ccc(OCC(=O)N4CCN(C)CC4)cc3)c2=O)=N1 (stereo not shown) [Compound 141] :: > 4.30
CC1=C(C(=O)OC(C)C)C(c2cccc(Cl)c2)n2c(s/c(=C\c3ccc(OCC(=O)O)cc3)c2=O)=N1 (stereo not shown) [15S0 (66)] :: < 4.00

Any idea what pEC50 was measured for CC1=C(C(=O)OC(C)C)C(c2ccc(Cl)cc2)n2c(s/c(=C\c3ccc(OC(C)(C)C(=O)O)cc3)c2=O)=N1 (stereo not shown) [47S0 (107)] ?
< 4.00

Any idea what pEC50 was measured for C=CCOC(=O)C1=C(C)N=c2s/c(=C\c3ccc(OCC(=O)N4CCN(C)CC4)cc3)c(=O)n2C1c1ccc(Cl)cc1 (stereo not shown) [30S0 (96)] ?
< 4.00

Any idea what pEC50 was measured for CC1=C(C(=O)OC(C)C)C(c2ccc(Cl)cc2)n2c(s/c(=C\c3ccc(OCC(=O)NCC4CCN(C)CC4)cc3)c2=O)=N1 (stereo not shown) [Compound 138] ?
4.00 to 4.30

Any idea what pEC50 was measured for C#CCOc1ccc(/C=c2\sc3n(c2=O)C(c2ccc(Cl)cc2)C(C(=O)OC(C)C)=C(C)N=3)cc1 (stereo not shown) [36S0 (116)] ?
< 4.00

Any idea what pEC50 was measured for CC1=C(C(=O)CC(C)C)C(c2ccc(Cl)cc2)n2c(s/c(=C\c3ccc(OCC(=O)N4CCN(C)CC4)cc3)c2=O)=N1 (stereo not shown) [27S0 (98)] ?
4.00 to 4.30

Any idea what pEC50 was measured for CC1=C(C(=O)OC(C)C)C(c2ccc(Cl)cc2)n2c(s/c(=C\c3ccc(OCC(N)=O)cc3)c2=O)=N1 (stereo not shown) [8S0 (15)] ?
< 4.00

Any idea what pEC50 was measured for CC1=C(C(=O)OC(C)C)C(c2ccc(Cl)cc2)n2c(s/c(=C\c3ccc(OCC(=O)N4CCN(C5CCCCC5)CC4)cc3)c2=O)=N1 (stereo not shown) [22S0 (17)] ?
< 4.00

Any idea what pEC50 was measured for CC1=C(C(=O)OC(C)C)C(c2ccc(Cl)cc2)n2c(s/c(=C\c3ccc(OCC(=O)N4CCN(C)CC4)cc3)c2=O)=N1 (stereo not shown) [6S0 (13)] ?
4.00 to 4.30

The reported measurements were obtained from patent US20250129101A1.
